# Test system: NQO1 activation in BEAS-2B cells
# Assay overview: BEAS-2B cellular MTT assay of NQO1 activation, 0% HSA
# Type: cell-based
# Conditions used: Homo sapiens, Serum Free W, read-out: BEAS EC50 (nM) Serum Free W
For each record, write down the corresponding EC50.
Dear colleague, please return just the value in nM, with no unit written.

Input COCCn1c2cc3cc(ccc31)CCCCCCn1nnc3c(C)c(ccc31)[C@@H](CC(=O)O)c1ccc3c(c1)CN(CC3)C2=O [Compound 85] . Output EC50: 39.4

Input Cc1c2ccc3c1nnn3CCCCCc1ccc3c(c1)cc(n3C)C(=O)N1CCc3ccc(cc3C1)[C@H]2[C@H](C)C(=O)O [Compound 114] . Output EC50: 0.1

Input Cc1c2cnc3c1nnn3CCCCCCOc1cc(F)c(c(F)c1)C(=O)N1CCc3ccc(cc3C1)[C@@H]2CC(=O)O [Compound 207] . Output EC50: 23.7

Input Cc1c2n(C)c3ccc(cc13)C/C=C\CCCn1nnc3c(C)c(cnc31)[C@@H](CC(=O)O)c1ccc3c(c1)CN(CC3)C2=O [Compound 65] . Output EC50: 3.7

Input Cc1c2ccc3c1nnn3CC/C=C/Cc1ccc(c(F)c1)C(=O)N1CCc3ccc(cc3C1)C2C(C)C(=O)O (centres unmarked) [Compound 376] . Output EC50: 2.1

Input Cc1cc2ncc1[C@@H](C(C)(C)C(=O)O)c1ccc3c(c1)CN(CC3)C(=O)c1ccc(cc1)CCCCCO2 [Compound 54] . Output EC50: 0.2

Input COc1cc2ccc1CCCCCn1nnc3c(C)c(cnc31)[C@H](CC(=O)O)c1ccc3c(c1)CN(CC3)C2=O [Compound 87] . Output EC50: 13

Input Cc1c2ccc3c1nnn3CCCCCCc1c(F)c(F)c(c(F)c1F)C(=O)N1CCc3ccc(cc3C1)[C@@H]2CC(=O)O [Compound 90] . Output EC50: 1.3

Input COc1cc2ncc1[C@H](CC(=O)O)c1ccc3c(c1)CN(CC3)C(=O)c1ccc(cc1)CCCCCO2 [Compound 79] . Output EC50: 733

Input C[C@@H](C(=O)O)[C@H]1c2ccc(nc2)OCC/C=C/Cc2ccc(cc2)C(=O)N2CCc3ccc1cc3C2 [Compound 66] . Output EC50: 20.6

Input Cc1cc2ncc1[C@H](C(C)(C)C(=O)O)c1ccc3c(c1)CN(CC3)C(=O)c1ccc(cc1)CCCCCO2 [Compound 53] . Output EC50: 8.7

Input Cc1c2cnc3c1nnn3CCCCCCc1c(F)c(F)c(c(F)c1F)C(=O)N1CCc3ccc(cc3C1)[C@@H]2[C@@H](C)C(=O)O [Compound 36] . Output EC50: 35

Input Cc1c2ccc3c1nnn3CCCCCc1ccc(c3ncccc13)C(=O)N1CCc3ccc(cc3C1)[C@@H]2CC(=O)O [Compound 51] . Output EC50: 44.9

* * *

# Test system: NQO1 activation in BEAS-2B cells
# Assay overview: BEAS-2B cellular MTT assay of NQO1 activation, 0.3% HSA
# Type: cell-based
# Conditions used: Homo sapiens, BEAS+, read-out: BEAS+ EC50
# Experimental: The growth rate of the BEAS-2B cells changed based on the lot of BEGM SingleQuots in the BEGM media. The cell growth rate was determined for each lot of SingleQuots. […] Until the cell growth rate was determined, cells were seeded at different densities (cells/cm^2) in multiple tissue culture flasks in order to avoid the cells becoming more than 70% confluent. […]
Endpoint: pEC50
Please express pEC50 as -log10 of the molar concentration.

Input O=C(O)CC1c2ccc(nc2)OCCCCOc2ccc(cc2Cl)C(=O)N2CCc3ccc1cc3C2 (stereo not shown) [Compound 212] . Output pEC50: 6.22

Input C[C@H](C(=O)O)[C@@H]1c2ccc3c(c2)CN(CC3)C(=O)c2ccc(cc2)OCCCCCn2nnc3cc1ccc32 [Compound 231] . Output pEC50: 6.56

Input Cc1c2cnc3c1nnn3CCCCCCOc1cc(F)c(c(F)c1)C(=O)N1CCc3ccc(cc3C1)C2CC(=O)O (stereo not shown) [Compound 128] . Output pEC50: 7.75

Input Cc1c2ccc3c1nnn3CCCCCCc1ccc(nc1)C(=O)N1CCc3ccc(cc3C1)C2CC(=O)O (stereo not shown) [Compound 230] . Output pEC50: 5.96

Input Cc1cc2ccc1OCCCCCCn1nnc3c(C)c(ccc31)C(CC(=O)O)c1ccc3c(c1)CN(CC3)C2=O (stereo not shown) [Compound 260] . Output pEC50: 6.47

Input Cc1c2cnc3c1nnn3CCCCCc1cc(F)c(c(F)c1)C(=O)N1CCc3ccc(cc3C1)C2CC(=O)O (stereo not shown) [Compound 168] . Output pEC50: 8.43

Input Cc1c2cnc3c1nnn3CCCCCc1cc(F)c(c(F)c1)C(=O)N1CCc3ccc(cc3C1)[C@@H]2CC(=O)O [Compound 136] . Output pEC50: 7.82

The measurements presented in this section are drawn from patent US12692274B2.
